# Assayed system: GDP-bound KRAS wild-type protein (Homo sapiens, UniProt P01116)
# Sequence (P01116 whole entry): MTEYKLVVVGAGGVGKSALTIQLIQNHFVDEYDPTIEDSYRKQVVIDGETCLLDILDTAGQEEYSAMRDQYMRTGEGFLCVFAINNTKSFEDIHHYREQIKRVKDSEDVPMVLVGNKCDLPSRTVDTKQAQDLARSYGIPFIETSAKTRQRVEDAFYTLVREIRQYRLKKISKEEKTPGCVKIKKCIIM
# Test method notes: Binding to KRAS by surface plasmon resonance (SPR), Single Cycle Kinetics
# Experimental setup: SPR, Single Cycle Kinetics, GDP-bound KRAS wild-type protein; read-out: KRAS KD
// assign True if Kd falls strictly below 0.3 nM, else False (ties count as False)

Exercise: # TODO verify Kd < 0.3 nM strictly for this compound: CCCOC[C@H]1C(=O)N[C@@H]([C@@H](C)CC)C(=O)N(C)CC(=O)N(C)[C@H]2C/C=C\CCN(C2=O)[C@@H](CC2CCC(F)(F)CC2)C(=O)N(C)CC(=O)N[C@@H](CCc2cc(F)c(C(F)(F)F)c(F)c2)C(=O)N2C[C@@H](C)C[C@H]2C(=O)NC2(CC(C)(C)C2)C(=O)N(C)[C@@H](C(CC)CC)C(=O)N(C)[C@H](C(=O)N(C)C)CC(=O)N1C
Solution: False

Exercise: # TODO verify Kd < 0.3 nM strictly for this compound: CCCOC[C@H]1C(=O)N[C@@H]([C@@H](C)CC)C(=O)N(C)CC(=O)N(C)[C@H]2C/C=C\CCN(C2=O)[C@@H](CC2CCCCC2)C(=O)N(C)CC(=O)N[C@@H](CCc2cc(F)c(C(F)(F)F)c(F)c2)C(=O)N2C[C@H](OCC)C[C@H]2C(=O)NC2(CC(C)(C)C2)C(=O)N(C)[C@@H](C(CC)CC)C(=O)N(C)[C@H](C(=O)N(C)C)CC(=O)N1C
Solution: False

Exercise: # TODO verify Kd < 0.3 nM strictly for this compound: CCO[C@@H]1C[C@H]2C(=O)NC3(CCC3)C(=O)N(C)[C@@H](C3CCCC3)C(=O)N(C)[C@H](C(=O)N(C)C)CC(=O)N(C)[C@@H](Cc3cccnc3)C(=O)N[C@@H]([C@@H](C)CC)C(=O)N(C)CC(=O)N(C)[C@H]3CCCCCN(C3=O)[C@@H](Cc3ccc(F)cc3)C(=O)N(C)CC(=O)N[C@@H](CCc3cc(F)c(C(F)(F)F)c(F)c3)C(=O)N2C1
Solution: True

Exercise: # TODO verify Kd < 0.3 nM strictly for this compound: CCOC[C@H]1C(=O)N[C@@H]([C@@H](C)CC)C(=O)N(C)CC(=O)N(C)[C@H]2C/C=C\CCN(C2=O)[C@@H](Cc2ccc(C)cc2)C(=O)N(C)CC(=O)N[C@@H](CCc2cc(F)c(C(F)(F)F)c(F)c2)C(=O)N2C[C@@H](C)C[C@H]2C(=O)NC2(CC(C)(C)C2)C(=O)N(C)[C@@H](C2CCCC2)C(=O)N(C)[C@H](C(=O)N(C)CC)CC(=O)N1C
Solution: True

Exercise: # TODO verify Kd < 0.3 nM strictly for this compound: CCCO[C@@H]1C[C@H]2C(=O)NC3(CC(C)(C)C3)C(=O)N(C)[C@@H](C(CC)CC)C(=O)N(C)[C@H](C(=O)N(C)C)CC(=O)N(C)[C@H]3CCCc4ccc(cc4)C[C@@H](C(=O)N(C)CC(=O)N[C@@H](CCc4ccc(C(F)(F)F)c(OC)c4)C(=O)N2C1)N1CC/C=C\C[C@@H](C1=O)N(C)C(=O)CN(C)C(=O)[C@H]([C@@H](C)CC)NC3=O
Solution: False
